Each recorded value in this set is attributed to patent US11214803B2.

- System: Yap1 mRNA
- Experimental protocol: Dose-dependent inhibition of human Yap1 in A-431 cells (Example 7, 10,000 cells per well, RTS36584)
- Format: cell-based
- Condition context: Table 60, 62.5 nM, free uptake, A-431 cells 10,000 cells per well, 48 hours
Strand notation (5' to 3'): a small letter for the sugar, then the base; units joined by * are phosphorothioate-linked, units joined directly phosphodiester-linked; [ ] holds rarer units or linkages, { } end groups; capitals alone tell only the bases. k = constrained ethyl (cEt); [5mC] = 5-methylcytosine; d = 2'-deoxy (DNA)
Here the recorded Yap1 mRNA, % UTC is given for each entry.

- Substance: "958648 (kG*kA*kA*dT*dA*d[5mC]*dT*dG*dA*dG*dT*d[5mC]*dA*kG*kG*kA; antisense) [compound 958648]"
  Unit of measurement: "% UTC"
  Yap1 mRNA, % UTC: 65
- Substance: "958568 (kT*kA*kT*dG*dA*dG*dT*dG*dA*dT*d[5mC]*dA*dA*k[5mC]*k[5mC]*kT; antisense) [compound 958568]"
  Unit of measurement: "% UTC"
  Yap1 mRNA, % UTC: 65
- Substance: "958523 (kT*kT*k[5mC]*d[5mC]*dA*dA*dT*d[5mC]*dG*dA*dG*dA*d[5mC]*kT*kT*kA; antisense) [compound 958523]"
  Unit of measurement: "% UTC"
  Yap1 mRNA, % UTC: 64
- Substance: "958753 (kT*kG*kT*dA*dT*dA*dT*dG*d[5mC]*d[5mC]*dG*dT*dT*k[5mC]*k[5mC]*k[5mC]; antisense) [compound 958753]"
  Unit of measurement: "% UTC"
  Yap1 mRNA, % UTC: 48
- Substance: "958658 (kA*k[5mC]*kA*dG*dT*dA*dT*dA*dA*dT*dA*dT*d[5mC]*k[5mC]*kT*kA; antisense) [compound 958658]"
  Unit of measurement: "% UTC"
  Yap1 mRNA, % UTC: 88
- Substance: "958554 (kA*kA*k[5mC]*d[5mC]*dA*dT*dT*dA*dT*dT*dA*d[5mC]*dT*k[5mC]*k[5mC]*kT; antisense) [compound 958554]"
  Unit of measurement: "% UTC"
  Yap1 mRNA, % UTC: 34
- Substance: "958558 (kT*kT*k[5mC]*dA*d[5mC]*dA*dA*d[5mC]*d[5mC]*dA*dA*d[5mC]*dT*kA*kT*kT; antisense) [compound 958558]"
  Unit of measurement: "% UTC"
  Yap1 mRNA, % UTC: 83
- Substance: "958718 (kG*kA*kA*d[5mC]*dA*d[5mC]*dT*dA*dT*dA*dG*d[5mC]*dT*kT*kG*kG; antisense) [compound 958718]"
  Unit of measurement: "% UTC"
  Yap1 mRNA, % UTC: 80
- Substance: "958578 (k[5mC]*kT*kT*dA*dA*dT*d[5mC]*dT*dG*dT*dG*dG*d[5mC]*kT*kA*k[5mC]; antisense) [compound 958578]"
  Unit of measurement: "% UTC"
  Yap1 mRNA, % UTC: 52
- Substance: "715483 (k[5mC]*kT*k[5mC]*dT*dT*dT*dG*dG*dA*dA*dA*d[5mC]*d[5mC]*kA*kT*kT) [compound 715483]"
  Unit of measurement: "% UTC"
  Yap1 mRNA, % UTC: 40
- Substance: "958588 (kG*kT*kG*dT*dA*d[5mC]*dT*dT*dA*dG*dG*dT*dG*kA*k[5mC]*kT; antisense) [compound 958588]"
  Unit of measurement: "% UTC"
  Yap1 mRNA, % UTC: 73
- Substance: "958598 (k[5mC]*k[5mC]*k[5mC]*dA*dA*dT*dG*d[5mC]*dT*dA*d[5mC]*d[5mC]*d[5mC]*kA*kA*kT; antisense) [compound 958598]"
  Unit of measurement: "% UTC"
  Yap1 mRNA, % UTC: 58
- Substance: "958793 (k[5mC]*k[5mC]*kG*d[5mC]*dA*dT*dT*dG*d[5mC]*d[5mC]*dT*dA*dA*kG*kA*kG; antisense) [compound 958793]"
  Unit of measurement: "% UTC"
  Yap1 mRNA, % UTC: 61
